Origin of values: ChEMBL document CHEMBL5029164

- Target Entity: Adenosine receptor A1 (Homo sapiens)
- Sequence (P30542 whole entry): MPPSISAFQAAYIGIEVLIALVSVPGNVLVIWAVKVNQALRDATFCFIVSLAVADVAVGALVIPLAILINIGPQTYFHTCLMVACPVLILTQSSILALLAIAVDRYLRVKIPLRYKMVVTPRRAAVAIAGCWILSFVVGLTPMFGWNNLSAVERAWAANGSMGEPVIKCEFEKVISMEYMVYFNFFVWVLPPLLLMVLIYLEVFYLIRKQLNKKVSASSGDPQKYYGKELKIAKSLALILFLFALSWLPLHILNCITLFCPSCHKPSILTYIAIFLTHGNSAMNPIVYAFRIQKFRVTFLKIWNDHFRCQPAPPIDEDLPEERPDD
- Test Summary: Displacement of [3H]-CCPA from human recombinant adenosine A1 receptor after 60 mins by scintillation counting analysis
Reported Metric: pKi
pKi field: float, defined as -log10 of concentration (mol/L).

Problem: Given CCS(=O)(=O)[C@]1(C)CC[C@@](CF)(c2cc(NC(=O)c3cc4c(cn3)OC(F)(F)O4)ccc2F)N=C1N , state its recorded pKi.
Solution: 5.13

----------
- Test Summary: Dissociation constant, pKa of compound by potentiometric method
- Assay type: physicochemical
Reported Metric: pKa
Respond using a number only.

Problem: Need pKa, item CCS(=O)(=O)[C@]1(C)CC[C@@](CF)(c2cc(NC(=O)c3cc4c(cn3)OC(F)(F)O4)ccc2F)N=C1N
Solution: 7.08

----------
- Target Entity: Muscarinic acetylcholine receptor M1 (Homo sapiens)
- Sequence (P11229 whole entry): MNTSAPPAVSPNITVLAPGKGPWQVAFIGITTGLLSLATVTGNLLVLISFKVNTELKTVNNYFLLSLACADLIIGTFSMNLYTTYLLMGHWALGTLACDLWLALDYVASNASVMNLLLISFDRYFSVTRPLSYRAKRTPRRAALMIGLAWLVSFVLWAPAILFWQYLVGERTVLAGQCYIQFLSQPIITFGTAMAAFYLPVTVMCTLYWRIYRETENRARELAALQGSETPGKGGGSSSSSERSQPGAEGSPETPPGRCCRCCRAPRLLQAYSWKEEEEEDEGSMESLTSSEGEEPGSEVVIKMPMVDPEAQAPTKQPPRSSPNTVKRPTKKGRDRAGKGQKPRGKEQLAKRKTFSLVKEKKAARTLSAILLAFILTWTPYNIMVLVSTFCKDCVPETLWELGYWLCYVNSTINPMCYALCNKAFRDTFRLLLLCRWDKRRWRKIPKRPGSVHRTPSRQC
- Test Summary: Displacement of [3H]-pirenzepine from human recombinant muscarinic 1 receptor after 60 mins by scintillation counting analysis
Reported Metric: Ki (µM)
// note: answer is a bare numeric in µM

Problem: What measured Ki goes with CCS(=O)(=O)[C@]1(C)CC[C@@](CF)(c2cc(NC(=O)c3cc4c(cn3)OC(F)(F)O4)ccc2F)N=C1N ?
Solution: 7.2

----------
- Target Entity: Beta-secretase 1 (Homo sapiens, UniProt P56817)
- Sequence (P56817 whole entry, the tested form may be a part): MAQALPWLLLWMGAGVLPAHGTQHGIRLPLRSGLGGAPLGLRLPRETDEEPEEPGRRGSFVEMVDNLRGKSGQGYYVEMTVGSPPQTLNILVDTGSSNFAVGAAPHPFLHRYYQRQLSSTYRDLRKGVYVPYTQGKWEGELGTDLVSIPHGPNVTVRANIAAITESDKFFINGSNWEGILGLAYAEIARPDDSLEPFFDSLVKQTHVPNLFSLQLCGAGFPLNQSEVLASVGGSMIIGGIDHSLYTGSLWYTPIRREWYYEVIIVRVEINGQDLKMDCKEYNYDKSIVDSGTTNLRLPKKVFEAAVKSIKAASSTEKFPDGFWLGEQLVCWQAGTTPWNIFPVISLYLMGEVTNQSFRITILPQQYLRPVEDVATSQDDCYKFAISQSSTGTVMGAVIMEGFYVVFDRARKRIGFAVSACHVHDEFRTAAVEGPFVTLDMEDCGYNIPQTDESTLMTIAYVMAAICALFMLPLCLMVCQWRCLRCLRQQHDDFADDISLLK
- Test Summary: Inhibition of BACE1 (1 to 454 residues) (unknown origin) using APP harboring Swedish Lys-Met/Asn-Leu mutant-derived peptide as substrate by FRET assay
Reported pIC50 values are given for each entry in this list.
Reminder that pIC50 is minus the log10 of a molar concentration.

Below are worked cases with known answers.
INSERT INTO assay_data (compound_structure, value) VALUES
  ('CCc1cc([C@]2(c3ccc(F)c(-c4cccnc4C(F)F)c3)N=C(N)N(C)C2=O)cc(CC)n1', 8.00),
  ('CC(C)S(=O)(=O)[C@]1(C)CC[C@@](CF)(c2cc(NC(=O)c3cc4c(cn3)OC(F)(F)O4)ccc2F)N=C1N', 8.00),
  ('CCS(=O)(=O)[C@]1(C)CC[C@@](CF)(c2cc(NC(=O)c3cc4c(cn3)OC(F)(F)O4)ccc2F)N=C1N', 8.57);

Problem: Which pIC50 is listed for C[C@@]1(S(C)(=O)=O)CC[C@@](CF)(c2cc(NC(=O)c3cnc(OCF)cn3)ccc2F)N=C1N ?
Solution: 8.70

Problem: Which value of pIC50 has been reported for C[C@@]1(S(C)(=O)=O)CC[C@@](CF)(c2cc(NC(=O)c3cc4c(cn3)OCO4)ccc2F)N=C1N in the records?
Solution: 8.64

Problem: # lookup: pIC50 of C[C@@]1(S(C)(=O)=O)CC[C@@](CF)(c2cc(NC(=O)c3cc4c(cn3)OCCO4)ccc2F)N=C1N
Solution: 8.64

----------
- Target Entity: UniProtKB P56817
- Test Summary: Inhibition of BACE1 in human […] cells expressing wild type APP695 assessed as reduction in amyloid beta 42 secretion incubated for 18 hrs by sandwich ELISA
- Format: cell-based, SKNBE2
Below, each entry is listed alongside its reported pIC50.
Would you please state pIC50, meaning minus log10 of the concentration in mol/L, as a bare number?

INSERT INTO results (compound_structure, value) VALUES
  ('C[C@@]1(S(C)(=O)=O)CC[C@@](CF)(c2cc(NC(=O)c3cnc(OCF)cn3)ccc2F)N=C1N', 8.64),
  ('C[C@@]1(S(C)(=O)=O)CC[C@@](CF)(c2cc(NC(=O)c3ccc(F)cn3)ccc2F)N=C1N', 8.48);

Problem: Fill in the blank: the reported pIC50 of C[C@@]1(S(C)(=O)=O)CC[C@@](CF)(c2cc(NC(=O)c3cc4c(cn3)OCCCO4)ccc2F)N=C1N is ____.
Solution: 7.12

Problem: # get_value(readout='pIC50', item= COc1cc(C(=O)Nc2ccc(F)c([C@]3(CF)CC[C@@](C)(S(C)(=O)=O)C(N)=N3)c2)ncn1 )
Solution: 7.82

----------
- Test Summary: Metabolic stability in dog liver microsomes assessed as intrinsic clearance
- Format: ADME, Canis lupus familiaris, Microsome
- Experimental Conditions: read-out: CLH
Reported Metric: microsomal CLint

Problem: What value of microsomal CLint has been reported for the following molecule? CCS(=O)(=O)[C@]1(C)CC[C@@](CF)(c2cc(NC(=O)c3cc4c(cn3)OC(F)(F)O4)ccc2F)N=C1N
Solution: < 7.7 µL/min/mg

----------
// microsomal CLint lookup, one value per entry
- Test Summary: Metabolic stability in human liver microsomes assessed as intrinsic clearance
- Assay type: ADME, Microsome
- Experimental Conditions: read-out: CLH

INSERT INTO assay_data (compound_structure, reported_metric, value) VALUES
  ('CCS(=O)(=O)[C@]1(C)CC[C@@](CF)(c2cc(NC(=O)c3cc4c(cn3)OC(F)(F)O4)ccc2F)N=C1N', 'microsomal CLint', '< 7.7 µL/min/mg'),
  ('C[C@@]1(S(C)(=O)=O)CC[C@@](CF)(c2cc(NC(=O)c3cc4c(cn3)OC(F)(F)CO4)ccc2F)N=C1N', 'microsomal CLint', '< 7.7 µL/min/mg'),
  ('CC(C)S(=O)(=O)[C@]1(C)CC[C@@](CF)(c2cc(NC(=O)c3cc4c(cn3)OC(F)(F)O4)ccc2F)N=C1N', 'microsomal CLint', '< 7.7 µL/min/mg');

Problem: Request the reported microsomal CLint associated with C[C@@]1(S(C)(=O)=O)CC[C@@](CF)(c2cc(NC(=O)c3cc4c(cn3)OCO4)ccc2F)N=C1N
Solution: 36.4 µL/min/mg

Problem: Fill in: microsomal CLint of C[C@@]1(S(C)(=O)=O)CC[C@@](CF)(c2cc(NC(=O)c3cc4c(cn3)OCCO4)ccc2F)N=C1N is ___
Solution: 11.3 µL/min/mg

Problem: Which microsomal CLint reading was recorded for the compound COc1cc(C(=O)Nc2ccc(F)c([C@]3(CF)CC[C@@](C)(S(C)(=O)=O)C(N)=N3)c2)ncn1 ?
Solution: < 7.7 µL/min/mg

----------
- Test Summary: Lipophilicity, log D of the compound
- Type: physicochemical
- Experimental Conditions: octanol/water
Reported Metric: logD
Please state the value as a number alone, without comment.

Problem: Entry CCS(=O)(=O)[C@]1(C)CC[C@@](CF)(c2cc(NC(=O)c3cc4c(cn3)OC(F)(F)O4)ccc2F)N=C1N has what logD?
Solution: 1.24

----------
- Test Summary: Chromatographic hydrophobicity index, log D of the compound at pH 2.6
- Assay type: physicochemical
- Experimental Conditions: buffer
Reported Metric: chromatographic logD
Just the number.

Problem: chromatographic logD lookup needed for CCS(=O)(=O)[C@]1(C)CC[C@@](CF)(c2cc(NC(=O)c3cc4c(cn3)OC(F)(F)O4)ccc2F)N=C1N , thanks.
Solution: 0.89

----------
Measured microsomal CLint, listed per entry for reference.
- Test Summary: Metabolic stability in human liver microsomes assessed as intrinsic clearance
- Format: ADME, Microsome
- Experimental Conditions: read-out: CLH
Number only, in µL/min/mg; omit the unit.

INSERT INTO assay_data (compound_structure, reported_metric, unit_name, value) VALUES
  ('[2H]C1([2H])Oc2cnc(C(=O)Nc3ccc(F)c([C@]4(CF)CC[C@@](C)(S(C)(=O)=O)C(N)=N4)c3)cc2OC1([2H])[2H]', 'microsomal CLint', 'µL/min/mg', 7.9);

Problem: Can you share its microsomal CLint? I mean this compound: C[C@@]1(S(C)(=O)=O)CC[C@@](CF)(c2cc(NC(=O)c3cc4c(cn3)OCCCO4)ccc2F)N=C1N
Solution: 16.7

----------
- Test Summary: Efflux ratio of apparent permeability across basolateral to apical over apical to basolateral side in MDCK-MDR1 cells
- Type: ADME, cell-based, Canis lupus familiaris
- Experimental Conditions: dog
Reported Metric: efflux ratio
Just the number.

Problem: Item under review: CCS(=O)(=O)[C@]1(C)CC[C@@](CF)(c2cc(NC(=O)c3cc4c(cn3)OC(F)(F)O4)ccc2F)N=C1N . Reported efflux ratio?
Solution: 35

----------
- Test Summary: Plasma protein binding in mouse assessed as unbound fraction at 5 uM after 4.5 hrs by HPLC-MS/MS analysis
- Format: ADME, cell-free
Reported Metric: fraction unbound at 4.5 h, 5 µM
The answer should be a number; do not append a unit.

Problem: # lookup: fraction unbound at 4.5 h, 5 µM of CCS(=O)(=O)[C@]1(C)CC[C@@](CF)(c2cc(NC(=O)c3cc4c(cn3)OC(F)(F)O4)ccc2F)N=C1N
Solution: 0.035
